- Tested on: cancer cell lines
- measurementDescription: Standard Cytotoxicity Assay for other cancer cell types (TC50, CellTiter-Glo)
- Type: cell-based
- statedConditions: Daudi cells (lymphoma); 3 day; read-out: Cmpd A 3 day TC50

structureSmiles | CC50
O=C(NCc1cccnc1)Nc1ccc(COc2ccccc2-c2ccccc2)cc1 | < 0.8 nM

* * *

- measurementDescription: Standard Cytotoxicity Assay for other cancer cell types (TC50, CellTiter-Glo)
- Type: cell-based
- statedConditions: human, hFLS-RA (primary synoviocytes); 7 day; read-out: Cmpd A 7 day TC50

structureSmiles | CC50 at 7 day
O=C(NCc1cccnc1)Nc1ccc(COc2ccccc2-c2ccccc2)cc1 | > 25 µM

* * *

- Test system: cancer cell lines
- measurementDescription: Standard Cytotoxicity Assay for other cancer cell types (TC50, CellTiter-Glo)
- Format: cell-based
- statedConditions: Calu-6 cells (lung (NSCLC)); 3 day; read-out: Cmpd A 3 day TC50

structureSmiles | assayedTarget | CC50 [nM]
O=C(NCc1cccnc1)Nc1ccc(COc2ccccc2-c2ccccc2)cc1 | cancer cell lines | 12
